// reported log10(EC50) per item
System: mouse hippocampal neuronal cell line HT22
Experiment: Neurotoxicity and excitotoxicity assay, HT22 cells + glutamate, erastin or RSL3, MTS cell viability
Type: cell-based
Details: Mus musculus, HT-22; HT22 cells, 0.5 μM RSL3, 24 h, MTS; read-out: EC50 HT22 RSL3
propertyLabel: log10(EC50) (log10 of the value in µM)

| molecule | recordedNumber |
| --- | --- |
| CCOc1ccc(-c2cc3ccncc3n2OC(=O)c2ccccc2)cc1 [Compound 6] | 0.36 |
| COc1ccc(-c2cc3ccccc3n2O)cc1 [Compound 3, 2-(4-methoxyphenyl)-1H-indol-1-ol] | -0.49 |
| COc1ccc(-c2ccc3cc(-c4ccc(O)cc4)[nH]c3n2)cn1 [Compound 39] | 1.21 |
| Oc1ccc(-c2cc3ccc(Cl)nc3[nH]2)cc1 [Compound 37] | 0.96 |
| CC(C)(C)OC(=O)n1c(-c2ccc(O)cc2)cc2ccccc21 [Compound 29] | 0.60 |
| Oc1ccc2[nH]c(-c3ccc(OCc4ccccc4)cc3)cc2c1 [Compound 32, 2-(4-(benzyloxy)phenyl)-1H-indol-5-ol] | 0.00 |
| CCOc1ccc(-c2cc3ccc(C#N)nc3[nH]2)cc1 [Compound 35] | 0.73 |
| CCOc1ccc(-c2cc3c(Nc4ccccc4)ccnc3n2S(=O)(=O)c2ccccc2)cc1 [Compound 43] | 0.37 |
| CCOc1ccc(-c2cc3cccnc3n2CCN2CCOCC2)cc1 [Compound 20] | 1.22 |
